- assayed target: T1, hPD-1-his (human, UniProt Q15116 25-167)
- T1 construct: domain: IgV domain; monomer in solution; biotin-labelled where captured by streptavidin; also called biotin-hPD-1-his
- T1 sequence (Q15116 other isoform, or with tags, fused parts or gaps limits assumed): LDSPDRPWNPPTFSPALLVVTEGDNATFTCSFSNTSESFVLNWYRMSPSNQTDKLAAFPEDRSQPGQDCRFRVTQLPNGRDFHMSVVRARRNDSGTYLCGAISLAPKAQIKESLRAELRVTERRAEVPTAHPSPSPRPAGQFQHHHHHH
- test: ELISA, PD-1-his on streptavidin
quantity kind: OD at 10 nM (OD)
Give bare numbers, in OD.

binder	quantity kind	unit of measurement	data value
38A11 (antibody, V domains shown) VH: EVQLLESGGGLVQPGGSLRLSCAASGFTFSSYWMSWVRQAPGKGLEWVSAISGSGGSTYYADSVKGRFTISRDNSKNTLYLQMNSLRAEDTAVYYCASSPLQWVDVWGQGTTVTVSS VL: DIQMTQSPSSLSASVGDRVTITCRASQSISSWLAWYQQKPGKAPKLLIYDASTLQSGVPSRFSGSGSGTDFTLTISSLQPEDFATYYCQQGNSFPFTFGPGTKVDIK	OD at 10 nM	OD	1.07
39G8 (antibody, V domains shown) VH: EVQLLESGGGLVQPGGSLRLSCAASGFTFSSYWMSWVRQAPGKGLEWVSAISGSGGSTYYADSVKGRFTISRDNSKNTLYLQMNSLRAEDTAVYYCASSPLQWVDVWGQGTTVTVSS VL: DIQMTQSPSSLSASVGDRVTITCRASQGISPWLAWYQQKPGKAPKLLIYDASKLETGVPSRFSGSGSGTDFTLTISSLQPEDFATYYCQQAYSFPFTFGGGTKVEIK	OD at 10 nM	OD	0.981

Next up:
Ask: Give the measured OD at 10 nM of 32D11 (antibody, V domains shown) VH: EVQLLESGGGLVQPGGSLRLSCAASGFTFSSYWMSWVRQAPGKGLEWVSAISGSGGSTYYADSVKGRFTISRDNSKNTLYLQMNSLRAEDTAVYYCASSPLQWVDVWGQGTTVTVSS VL: DIQMTQSPSSLSASVGDRVTITCRASQSINIWLAWYQQKPGKAPKLLIYDASNLETGVPSRFSGSGSGTDFTLTISSLQPEDFATYYCQQGYSFPFTFGPGTKVDIK .
Result: 0.935
